Data provenance is ChEMBL document CHEMBL5058577.

System: U2OS
EXPERIMENTAL DETAILS: Multiplex assay against U2OS
Type: toxicity, cell-based
CONDITION SUMMARY: human, 48 h, 10 µM, compound concentration 10 uM, replicate 1
QUANTITY NAME: Total Cell Count
Answers are plain numbers.

Worked cases, Total Cell Count given:
In [3]: df
Out[3]:
                               smiles_input  quantitative_result
0   OCCCNc1cc(-c2ccnc(Nc3cccc(Cl)c3)n2)ccn1                  223
1  CN1CCN(c2ccc(Nc3c4ccccc4nc4ccccc34)cc2)CC1.Cl.Cl.O                  243
2  C=CCN1C[C@H](C(=O)N(CCCN(C)C)C(=O)NCC)C[C@@H]2c3cccc4[nH]cc(c34)C[C@H]21                  303
3  Cn1cc(C(=O)OCC2CCN(CCNS(C)(=O)=O)CC2)c2ccccc21                  341
4  CN1CCC(C(=O)c2cccc(NC(=O)c3c(F)cc(F)cc3F)n2)CC1                  398

Required: Total Cell Count, one value per compound below.
1. COC(c1ccccc1)(c1ccccc1)[C@H](Oc1nc(C)cc(C)n1)C(=O)O
2. COc1cc2nc(N3CCN(C(=O)COc4c(OC)cccc4C(C)C)CC3)nc(N)c2cc1OC.Cl.Cl

1: 388; 2: 296

Respectfully, I request Total Cell Count for each entry included below.
1. Cc1c(Cc2ccc3ccccc3n2)c2cc(F)ccc2n1CC(=O)O
2. COCCn1c(C)c(C)s/c1=N\C(=O)C1C(C)(C)C1(C)C

392
305

* * *

Please go through the items and note down their Population Normal (%).
Test system: HEK-293T
EXPERIMENTAL DETAILS: Multiplex assay against HEK293T
Type: toxicity, cell-based
CONDITION SUMMARY: human, 12 h, 1 µM, compound concentration 1 uM, replicate 1
Numbers only, in %.

In [3]: df
Out[3]:
                                   compound  target_desc  units_of_measure  quantitative_result
0  O=C(Nc1cc(-c2ccccc2)nn1-c1ccccc1F)c1ccc([N+](=O)[O-])cc1     HEK-293T                 %                   90
1  O=c1ccc2ccc(OCCCCN3CCN(c4cccc5sccc45)CC3)cc2[nH]1 [BREXPIPRAZOLE]     HEK-293T                 %                   93
2  COCCCN1CCC(NC(=O)c2cc(Cl)c(N)c3c2OCC3)CC1 [PRUCALOPRIDE]     HEK-293T                 %                   91
3  Cc1cc(-c2ccc3c(c2)CC[C@H]3N2CC3(CCN(C(=O)Cc4cn5cc(C)sc5n4)CC3)C2)ncn1 [PF-5190457]     HEK-293T                 %                   94
4  Cn1cc(C(=O)OCC2CCN(CCNS(C)(=O)=O)CC2)c2ccccc21     HEK-293T                 %                   92
5  COc1ccc2[nH]c(I)c(CCNC(C)=O)c2c1 [IODOMELATONIN]     HEK-293T                 %                   94
6  COc1cc2nc(N3CCN(C(=O)COc4c(OC)cccc4C(C)C)CC3)nc(N)c2cc1OC.Cl.Cl     HEK-293T                 %                   94
7  COC(c1ccccc1)(c1ccccc1)[C@H](Oc1nc(C)cc(C)n1)C(=O)O [AMBRISENTAN]     HEK-293T                 %                   93

Proceeding to the next compound to report its Population Normal (%).
Param item = Cc1c(Cc2ccc3ccccc3n2)c2cc(F)ccc2n1CC(=O)O [TIMAPIPRANT] ; retrieve measured Population Normal (%).
89

* * *

I'd be grateful if you could share measured Population Pyknosed Nuclei (%) for these entries.
System: HEK-293T
EXPERIMENTAL DETAILS: Multiplex assay against HEK293T
Format: toxicity, cell-based
CONDITION SUMMARY: human, 24 h, 10 µM, compound concentration 10 uM, replicate 2
Numbers only, in %.

Sample answers from the record:
In [3]: df
Out[3]:
                               smiles_input  quantitative_result
0  N[C@](CC1c2ccccc2Oc2ccccc21)(C(=O)O)[C@H]1C[C@@H]1C(=O)O                   11
1  O=C(Nc1cc(-c2ccccc2)nn1-c1ccccc1F)c1ccc([N+](=O)[O-])cc1                    8
2  CN1CCN(c2ccc(Nc3c4ccccc4nc4ccccc34)cc2)CC1.Cl.Cl.O                    0

Batch request: Population Pyknosed Nuclei (%) per item, same order as input.
1. COc1cc(OC2CCN(C(C)=O)CC2)ccc1C(=O)N1CCC(N2C(=O)OCc3ccccc32)CC1
2. COc1cc(C(=O)N2CC[C@@H](O)[C@@H](N)C2)cc2nc(-c3cc4ccccc4n3CC3CC3)n(C)c12.Cl
3. CC(C)(O)C(=O)N1CCN(c2ccc(C(F)(F)F)c(C3=C(c4c[nH]c5ccccc45)C(=O)NC3=O)c2)CC1
4. C=CCN1C[C@H](C(=O)N(CCCN(C)C)C(=O)NCC)C[C@@H]2c3cccc4[nH]cc(c34)C[C@H]21
5. COC(c1ccccc1)(c1ccccc1)[C@H](Oc1nc(C)cc(C)n1)C(=O)O
6. Cc1cc(O)c(-c2ccc([C@@H](C)CN(C)C)cc2)c2c1[nH]c(=O)c1sccc12
7. COc1ccc2[nH]c(I)c(CCNC(C)=O)c2c1

[14, 15, 25, 9, 12, 23, 12]

* * *

System: Fibroblast
EXPERIMENTAL DETAILS: Multiplex assay against human fibroblast
Type: toxicity, cell-based
CONDITION SUMMARY: 24 h, 10 µM, compound concentration 10 uM, replicate 1
Non-standard residues stand in square brackets, D forms with d. Residues, ends and D or L forms follow the SMILES beside them.
QUANTITY NAME: Population Membrane Permeable-Phenotype (%)
The reply should consist of the numeric value with the unit placed after it.

Below: 5 molecules and their reported Population Membrane Permeable-Phenotype (%).
MOLECULE	TARGET DESC	RESULT
OCCCNc1cc(-c2ccnc(Nc3cccc(Cl)c3)n2)ccn1	Fibroblast	7%
O=C(O)CCC/C=C\CC1C(O)CC(O)C1/C=C/C(O)COc1cccc(Cl)c1 (configuration not stated)	Fibroblast	2%
CCn1c(-c2nc3cc(C(=O)N4CCCC(N)C4)ccc3n2C)cc2ccccc21.Cl (configuration not stated)	Fibroblast	0%
COc1cc2nc(N3CCN(C(=O)c4ccco4)CC3)nc(N)c2cc1OC.Cl [PRAZOSIN HYDROCHLORIDE]	Fibroblast	0%
O=c1nc2[nH]c3ccccc3nc-2c(=O)[nH]1	Fibroblast	0%

Field: Population Membrane Permeable-Phenotype (%). Fill in for each record below.
1. C[C@@H]1CC(=O)Nc2cccc(-c3ccc4c(c3)c(-c3cnn(C)c3)nn4C)c2N1
2. CC(C)C[C@@H]1NC(=O)[C@@H](C(C)C)NC(=O)[C@@H]2CCCN2C(=O)[C@@H](CC(=O)O)NC(=O)[C@@H](Cc2c[nH]c3ccccc23)NC1=O [BQ-123] (cyclo(L[dW][dD]P[dV]))
3. Cc1cc(O)c(-c2ccc([C@@H](C)CN(C)C)cc2)c2c1[nH]c(=O)c1sccc12
4. N[C@](CC1c2ccccc2Oc2ccccc21)(C(=O)O)[C@H]1C[C@@H]1C(=O)O
5. O=C(NCCNCC(O)COc1ccc(O)cc1)N1CCOCC1.O=C(NCCNCC(O)COc1ccc(O)cc1)N1CCOCC1.O=C(O)/C=C/C(=O)O (configuration not stated) [XAMOTEROL FUMARATE]
6. Cc1cc(NC(=O)NCCN2CCC(O)(Cc3ccccc3)CC2)c2ccccc2n1
7. S=C(NCCCc1c[nH]cn1)NCCCN(Cc1ccc(Cl)c(Cl)c1)c1ccc(Br)cn1

0%
1%
0%
1%
0%
0%
0%

Hi team, please reply with Population Membrane Permeable-Phenotype (%) for each item in this list.
1. CN(C)C/C=C/C(=O)Nc1ccc(C(=O)N2CCCC(Nc3ncc(Cl)c(-c4c[nH]c5ccccc45)n3)C2)cc1 (configuration not stated)
2. CC(C)(O)C(=O)N1CCN(c2ccc(C(F)(F)F)c(C3=C(c4c[nH]c5ccccc45)C(=O)NC3=O)c2)CC1
3. COCCCN1CCC(NC(=O)c2cc(Cl)c(N)c3c2OCC3)CC1 [PRUCALOPRIDE]
4. Cc1sc2c(c1C)C(c1ccc(Cl)cc1)=N[C@H](CC(=O)OC(C)(C)C)c1nnc(C)n1-2
5. COC(c1ccccc1)(c1ccccc1)[C@H](Oc1nc(C)cc(C)n1)C(=O)O

["0%", "2%", "1%", "2%", "0%"]
